These measurements were taken from ChEMBL document CHEMBL1926664.

Test protocol: Growth inhibition of human H1299 cells after 72 hrs by XTT assay
Assay type: functional
Measurement setup: NCI-H1299, 72 h
Readout type: GI50 (µM)
Provide only the numeric value, understood in µM.

Enquiry: State its GI50 for this molecule: Oc1ccc2c(c1)/C(=N\OCCN1CCCC1)c1c-2c(-c2ccc(OCCN3CCCC3)cc2)nc2ccc(F)cc12
Return: 0.7

Enquiry: State its GI50 for this molecule: CN(C)CCCO/N=C1\c2cc(O)ccc2-c2c(-c3ccc(OCCCN(C)C)cc3)nc3ccccc3c21
Return: 0.69

Enquiry: State its GI50 for this molecule: CN(C)CCCO/N=C1\c2cc(O)ccc2-c2c(-c3ccc(OCCCN(C)C)cc3)nc3ccc(F)cc3c21
Return: 0.67

Enquiry: State its GI50 for this molecule: CN(C)CCCO/N=C1\c2cc(O)ccc2-c2c(-c3ccc(O)cc3)nc3ccc(F)cc3c21
Return: 6.3

Enquiry: State its GI50 for this molecule: Oc1ccc(-c2nc3ccccc3c3c2-c2ccc(O)cc2/C3=N\OCCN2CCCC2)cc1
Return: 6.06

Enquiry: State its GI50 for this molecule: Oc1ccc(-c2nc3ccccc3c3c2-c2ccc(OCCN4CCCC4)cc2/C3=N\OCCN2CCCC2)cc1
Return: 6.51

Enquiry: State its GI50 for this molecule: COc1ccc(-c2nc3ccc(OC)cc3c3c2-c2ccc(OC)cc2/C3=N\OCCN2CCCC2)cc1
Return: 6.54

Enquiry: State its GI50 for this molecule: COc1ccc(-c2nc3ccc(F)cc3c3c2-c2ccc(OC)cc2/C3=N\OCCCN(C)C)cc1
Return: 0.61

Enquiry: State its GI50 for this molecule: COc1ccc(-c2nc3ccccc3c3c2-c2ccc(OC)cc2/C3=N\OCCN2CCCC2)cc1
Return: 6.31

Enquiry: State its GI50 for this molecule: CN(C)CCCO/N=C1\c2cc(O)ccc2-c2c(-c3ccc(O)cc3)nc3ccccc3c21
Return: 6.94

Enquiry: State its GI50 for this molecule: CN(C)CCCO/N=C1\c2cc(OCCCN(C)C)ccc2-c2c(-c3ccc(O)cc3)nc3ccc(F)cc3c21
Return: 0.84

Enquiry: State its GI50 for this molecule: Oc1ccc(-c2nc3ccc(F)cc3c3c2-c2ccc(OCCN4CCCC4)cc2/C3=N\OCCN2CCCC2)cc1
Return: 7.09

Enquiry: State its GI50 for this molecule: COc1ccc(-c2nc3ccc(OC)cc3c3c2-c2ccc(OC)cc2/C3=N\OCCCN(C)C)cc1
Return: 5.7
